The measurements presented in this section are drawn from patent US4927958A.

Experiment: Acute toxicity (single oral administration to mice)
Settings: mouse, in vivo, read-out: Toxicity LD 50
Readings of LD50 for the listed compounds

Reference set, count: 3
compound	LD50
COC(=O)C#CC(O)/C=C/c1ccc(OC)cc1 (stereo not shown) [I]	1000 to 2000 mg/kg
COC(=O)/C=C\C(=O)/C=C/c1ccc(OC)cc1 [C]	625 to 1250 mg/kg
COCCOCCOC(=O)C#CC(O)/C=C/c1ccc(OC)cc1 (stereo not shown) [J]	> 4000 mg/kg

Using the record for COc1cccc(/C=C/C(=O)/C=C/C(=O)O)c1 [A] , report its LD50. 312 to 625 mg/kg

// next record COc1ccc(/C=C/C(=O)/C=C\C(=O)O)cc1 [F] 156 to 312 mg/kg

How about COCCOCCOC(=O)/C=C/C(=O)/C=C/c1cccc(OC)c1 [G] ? 500 to 1000 mg/kg

Can you handle COc1ccc(/C=C/C(=O)/C=C/C(=O)O)cc1 [B] next? 312 to 625 mg/kg

Next: O=C(O)/C=C/C(=O)/C=C/c1ccc(F)cc1 [E] 312 to 625 mg/kg

Same for COc1ccc(/C=C/C(=O)C#CC(=O)O)cc1 [D] 500 to 1000 mg/kg

What do we get for COCCOCCOC(=O)C#CC(=O)/C=C/c1ccc(OC)cc1 [H] ? 2500 to 5000 mg/kg
